Each entry below carries its recorded TGI.
- System: SK-MEL-5 melanoma
- assayOverview: NCI tumour cell line growth inhibition, 48 h

I am curious: what TGI value has been reported for CCCCCCCC/C=C\CCCCCCCC(=O)OC[C@]1(CO)CCC(=O)O1 ?
> 100 µM

Proceed to Nc1ccc(-c2ccc(Nc3cc(S(=O)(=O)O)c(N)c4c3C(=O)c3ccccc3C4=O)cc2)c(S(=O)(=O)O)c1
> 100 µM

Continuing:
I am curious: what TGI value has been reported for Cc1cccc(Cl)c1NC(N)=S ?
> 100 µM

---

- System: RXF-631 renal
- assayOverview: NCI tumour cell line growth inhibition, 48 h
propertyName: TGI

I am curious: what TGI value has been reported for CC(C)(C)C1(c2ccc(C3(c4ccccc4)Oc4ccccc4S3)[nH]2)Oc2ccccc2S1 (stereo not drawn) ?
> 100 µM

Continuing:
I am curious: what TGI value has been reported for CCOC(=O)C12CCSC1C1(C#N)C(C#N)=CC2(N=P(c2ccccc2)(c2ccccc2)c2ccccc2)n2c(=O)n(-c3ccccc3)c(=O)n21 (stereo not drawn) ?
> 100 µM

Proceed to O=C(c1ccco1)c1ccccc1C(=O)c1ccco1
> 100 µM
